Attribution: paper PMC10397247

interaction score for assorted binders
Molecular target: T1, P2-AA
T1 chain: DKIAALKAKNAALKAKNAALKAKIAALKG
Test: two-hybrid library CCmax;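 further: natural log of median RNA to DNA barcode read ratio; higher means stronger binding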
Conditions: mean of both orientations
Lab note: record the figure alone, no unit after it.

Reference set (6 entries):
Binder: DEIAALEAESAALEAESAALEAEIAALEG [P1-AA-12HAA-S]
interaction score: 2.24
--
Binder: DEIAALEAMNAALMAENAALEAEIAALEG [P1-AA-1HGe-M]
interaction score: 2.14
--
Binder: DEIAALEADNAALDADNAALDAEIAALEG [P1-AA-12HGe-D]
interaction score: 1.36
--
Binder: DEIAALEAELAALEAENAALEAEIAALEG [P1-AA-1HAA-L]
interaction score: 1.84
--
Binder: DEIAALEARNAALRARNAALRAEIAALEG [P1-AA-12HGe-R]
interaction score: -0.71
--
Binder: DELAANEAELAAEEAKLAAAKAKAAALKG [AP4-AA]
interaction score: -1.78

The recorded interaction score for DEIAALEADNAALDAENAALEAEIAALEG [P1-AA-1HGe-D] is 1.91

Notebook: DEIAALEAWNAALWAWNAALWAEIAALEG [P1-AA-12HGe-W] , interaction score read as -1.08

Reported interaction score for DKNAALKAENAALEAKIAALKAKIAALKG [P10-AA] was -1.38

Lab book: interaction score of DEIAALEAANAALAAANAALAAEIAALEG [P1-AA-12HGe-A] noted as 1.49

Form field interaction score, entry DEIAALEAEEAALEAEEAALEAEIAALEG [P1-AA-12HAA-E] : 1.91

Just so you know, measured interaction score for DEIAALEAKNAALKAKNAALKAEIAALEG [P1-AA-12HGe-K] came out at -0.289

Reported interaction score for DKNAALKAKIAALKAKIAALKAENAALEG [P12-AA] was -1.74

Lookup result for DKLAAIKAKLAANKAKKAALKAKAAALKG [AP2-AA] ; measured interaction score: -1.94

Input DEIAALEASNAALSAENAALEAEIAALEG [P1-AA-1HGe-S] . Output interaction score: 2.03

Record DEIAALEAELAALEAELAALEAEIAALEG [P1-AA-12HAA-L] . Reported interaction score: 1.49

interaction score measured on DEIAALEAYNAALYAENAALEAEIAALEG [P1-AA-1HGe-Y] = 1.87

The measured interaction score associated with DEIAALEAANAALAAENAALEAEIAALEG [P1-AA-1HGe-A] reads 1.57

Consider DEIAALEAHNAALHAHNAALHAEIAALEG [P1-AA-12HGe-H] . Its measured interaction score is -1.14

Measured interaction score, DEIAALEAKNAALKAELAAIEAKIAAKKG [AP5-AA] : -1.24
